SYSTEM UNDER TEST: purified recombinant linear UB dimers

{"PROTEIN": "OTU1-C92S (protein) MQNQIDMVKDEAEVAASISAIKGEEWGNCSSVEDQPSFQEEEAAKVPYVGDKEPLSSLAAEYQSGSPILLEKIKILDSQYIGIRRTRGDGNSFFRSFMFSYLEHILESQDRAEVDRIKVNVEKCRKTLQNLGYTDFTFEDFFALFLEQLDDILQGTEESISYDELVNRSRDQSVSDYIVMFFRFVTAGDIRTRADFFEPFITGLSNATVDQFCKSSVEPMGEESDHIHITALSDALGVAIRVVYLDRSSCDSGGVTVNHHDFVPVGITNEKDEEASAPFITLLYRPGHYDILYPKPSCKVSDNVGK", "linear UB polymer cleavage activity": "generally abolished"}
{"PROTEIN": "GST-OTU4c-C136S (protein) MMICYSPITTCSRNAISIKRHLGSRLYGVVAHGSSKFSCYSLLSGLSRRHYTGFRVSVSNRPSSWHDKGLFGFAYTGVIVSLLVCYSSTSQSAYADSSRDKDANNVHHHSSDGKFHNGKRVYTDYSIIGIPGDGRSLFRSVAHGFCLRSGKLAPGEKMQRELADELRTRVADEFIQRRQETEWFVEGDFDTYVRQIRDPHVWGGEPELFMASHVLQMPITVYMKDDKAGGLISIAEYGQEYGKDDPIRVLYHGFGHYDALLLHESKASIPKSKL", "linear UB polymer cleavage activity": "generally abolished"}
{"PROTEIN": "OTU1-H288R (protein) MQNQIDMVKDEAEVAASISAIKGEEWGNCSSVEDQPSFQEEEAAKVPYVGDKEPLSSLAAEYQSGSPILLEKIKILDSQYIGIRRTRGDGNCFFRSFMFSYLEHILESQDRAEVDRIKVNVEKCRKTLQNLGYTDFTFEDFFALFLEQLDDILQGTEESISYDELVNRSRDQSVSDYIVMFFRFVTAGDIRTRADFFEPFITGLSNATVDQFCKSSVEPMGEESDHIHITALSDALGVAIRVVYLDRSSCDSGGVTVNHHDFVPVGITNEKDEEASAPFITLLYRPGRYDILYPKPSCKVSDNVGK", "linear UB polymer cleavage activity": "generally abolished"}
